target-desc: human TLR9 (Homo sapiens)
Sequence (Q9NR96 26-1032): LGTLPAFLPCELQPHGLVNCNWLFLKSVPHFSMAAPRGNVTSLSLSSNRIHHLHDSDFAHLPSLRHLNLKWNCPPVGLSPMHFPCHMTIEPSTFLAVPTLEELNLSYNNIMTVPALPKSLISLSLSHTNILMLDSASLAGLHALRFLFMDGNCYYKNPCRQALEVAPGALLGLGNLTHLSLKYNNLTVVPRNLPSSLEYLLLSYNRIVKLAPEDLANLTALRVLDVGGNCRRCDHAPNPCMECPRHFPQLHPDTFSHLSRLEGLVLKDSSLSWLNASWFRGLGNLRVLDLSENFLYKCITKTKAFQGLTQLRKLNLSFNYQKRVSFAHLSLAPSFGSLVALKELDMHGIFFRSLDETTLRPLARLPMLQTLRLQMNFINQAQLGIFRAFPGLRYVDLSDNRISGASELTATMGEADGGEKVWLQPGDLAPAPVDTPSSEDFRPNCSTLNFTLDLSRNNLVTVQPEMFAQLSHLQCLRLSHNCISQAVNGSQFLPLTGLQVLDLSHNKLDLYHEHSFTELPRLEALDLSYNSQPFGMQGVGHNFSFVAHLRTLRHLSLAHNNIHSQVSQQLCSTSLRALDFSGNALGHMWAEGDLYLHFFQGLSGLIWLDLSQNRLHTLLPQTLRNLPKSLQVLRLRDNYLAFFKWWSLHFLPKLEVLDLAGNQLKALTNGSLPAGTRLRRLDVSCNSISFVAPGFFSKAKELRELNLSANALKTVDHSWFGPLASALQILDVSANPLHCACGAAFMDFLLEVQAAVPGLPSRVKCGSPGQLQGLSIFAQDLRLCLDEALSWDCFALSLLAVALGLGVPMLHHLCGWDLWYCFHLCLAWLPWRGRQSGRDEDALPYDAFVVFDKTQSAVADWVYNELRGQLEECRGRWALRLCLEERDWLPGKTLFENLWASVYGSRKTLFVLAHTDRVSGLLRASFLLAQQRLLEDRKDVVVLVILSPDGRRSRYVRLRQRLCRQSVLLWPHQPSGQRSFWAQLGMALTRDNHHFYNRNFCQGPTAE
test: TLR9 inhibition reporter assay (HEK-Blue cells, SEAP reporter, ODN2006 stimulation)
condition-parameters: HEK-Blue cells overexpressing human TLR9, ODN2006 5 nM
Text: TLR7/8/9 Inhibition Reporter Assays HEK-Blue™-cells (Invivogen) overexpressing human TLR7, TLR8 or TLR9 receptors were used for screening inhibitors of these receptors using an inducible SEAP (secreted embryonic alkaline phosphatase) reporter gene under the control of the IFN-β minimal promoter fused to five NF-κB and AP-1-binding sites. […]
pIC50: −log10 of the molar value.
Threshold check on pIC50: at or above 6 gives True, strictly below gives False.

{"columns": ["compound", "category-label"],
 "data": [
  ["COc1ccc(-c2[nH]c3ccc(C4CCN(Cc5csnn5)CC4)cc3c2C)cc1OC", "False"],
  ["COc1ccc(-c2[nH]c3ccc(C4CCN(Cc5nccn5C)CC4)cc3c2C)cc1OC", "False"],
  ["COc1ccc(-c2[nH]c3ccc(C4CCN(CC(=O)N(C)C)CC4)cc3c2CC(F)F)cc1OC", "False"],
  ["COc1ccc(-c2[nH]c3ccc(C4CCN(C5CCN(Cc6cccs6)CC5)CC4)cc3c2C)cc1OC", "True"]
]}

Shifting focus to the compound that follows.
Record COc1ccc(-c2[nH]c3ccc(C4CCNCC4(F)F)cc3c2C(C)C)cc1OC (stereo not drawn) ; criterion: pIC50 no lower than 6. Met?
False
